Readings of TGI for the listed molecules
- Test system: SK-MEL-28 melanoma
- test protocol: NCI tumour cell line growth inhibition, 48 h

Known results for molecules:
C=C(C)[C@@]1(OC(=O)c2cc([N+](=O)[O-])cc([N+](=O)[O-])c2)C[C@@H]2CCCC[C@@H]21; > 100 µM
O=C1Nc2c(C(F)(F)F)cccc2[C@@]1(c1ccc(O)cc1)c1ccc(OC(F)(F)F)cc1; 27.7 µM
O=C(O)CCc1ccc2c(c1)C(=O)CC2; > 100 µM
CC(=O)Nc1ccc2[nH]c(-c3cccc(Cl)c3)cc(=O)c2c1; > 100 µM
COC(=O)/C=C1/CCC(C)(C(=O)NS(=O)(=O)c2ccc(C)cc2)C1(C)C (configuration not stated); > 100 µM
CC(=O)OC/C=C\Cn1nc(Br)c(=O)[nH]c1=O; 32 µM
COC(=O)/C(=N\Nc1nc(=S)[nH]n1N)C(C#N)c1ccccc1 (configuration not stated); > 100 µM
COc1cc(OC)c(/C=C\c2ccnc3ccccc23)c(OC)c1; 17.9 µM
COc1cc2nc(SCC(=O)Nc3cc(OC)c(OC)c(OC)c3)n(Cc3ccccc3)c(=O)c2cc1OC; 11.4 µM
COc1ccc2cc(-c3cc4c(oc3=O)-c3ccccc3OC4O)c(=O)oc2c1 (configuration not stated); 32.2 µM

Please look at the following molecule next.
Observed TGI on SK-MEL-28 melanoma, entry Cc1ccc(S(=O)(=O)N2CCSCCN(S(=O)(=O)c3ccc(C)cc3)CCN(S(=O)(=O)c3ccc(C)cc3)CC2)cc1 , equals > 100 µM

Values were extracted from PubChem BioAssay (NCI).
